Structures can show the parent of a compound that is named as a salt.
measurement-type: melting point

Form field: reported melting point of CCCN1C(=O)N2C[C@@H](Cc3ccccc3)N=C2c2[nH]c(C3CCC3)nc21 (as salt: hydrochloride)
214 to 216 °C

Consider the molecule shown here: CCCN1C(=O)N2CC(Cc3ccc(Cl)cc3)N=C2c2[nH]c(C3CCCC3)nc21 (stereo not shown) (as salt: hydrochloride) What is its recorded melting point?
222 to 224 °C

Looking for the measured melting point of CCCN1C(=O)N2CC(Cc3cccc(F)c3)N=C2c2[nH]c(CC(C)C)nc21 (stereo not shown) , can you help?
186 to 187 °C

I would be grateful if you could share the reported melting point for CCCN1C(=O)N2C[C@H](C(C)(C)C)N=C2c2[nH]c(-c3ccoc3)nc21 .
204 to 206 °C

Requested read-out: melting point. Entry: CCCN1C(=O)N2CC(Cc3ccccc3F)N=C2c2[nH]c(CC(C)C)nc21 (stereo not shown)
159 to 160 °C

May I ask what melting point has been recorded for CCCc1nc2c([nH]1)C1=NC(Cc3ccc(Cl)cc3)CN1C(=O)N2CCC.Cl (stereo not shown) ?
191 to 192 °C

# melting point lookup, item CCCc1nc2c([nH]1)C1=NC(Cc3cccc(F)c3)CN1C(=O)N2CCC.Cl (stereo not shown)
139 to 140 °C

For CCCCc1nc2c([nH]1)C1=NC(Cc3ccc(F)cc3)CN1C(=O)N2CCC.Cl (stereo not shown) , what is its reported melting point?
193 to 196 °C

Recorded melting point of CCCN1C(=O)N2C[C@@H](C)N=C2c2[nH]c(C3CCCC3)nc21.Cl , please.
218 to 219 °C

What does the record list as melting point for CCCN1C(=O)N2C[C@@H](Cc3ccccc3)N=C2c2[nH]c(C(C)(C)C)nc21 (as salt: hydrochloride) ?
220 to 222 °C

Field request: melting point | item: CCCc1nc2c([nH]1)C1=N[C@H](Cc3ccccc3)CN1C(=O)N2CCC (as salt: hydrochloride)
195 to 197 °C

Dear colleague, I am looking for the recorded melting point of the following molecule: CCCN1C(=O)N2C[C@H](C(C)C)N=C2c2[nH]c(C3CCCC3)nc21.Cl
109 to 112 °C

I'd like to know its melting point. The molecule in question is CCCN1C(=O)N2CC(Cc3ccc(F)cc3)N=C2c2[nH]c(C3CCCCC3)nc21 (stereo not shown) (as salt: hydrochloride)
237 to 239 °C

Entry CCCN1C(=O)N2C[C@@H](C(C)C)N=C2c2[nH]c(C3CCCC3)nc21.Cl has what melting point?
116 to 118 °C

Quick check: melting point of CCCN1C(=O)N2CC(Cc3ccc(Cl)cc3)N=C2c2[nH]c(C3CCC3)nc21.Cl (stereo not shown) ?
214 to 215 °C

Item CCCc1nc2c([nH]1)C1=NC(Cc3ccc(F)cc3)CN1C(=O)N2CCC.Cl (stereo not shown) has what recorded melting point?
199 to 200 °C

Could you share which melting point value was measured for CCCN1C(=O)N2C[C@@H](Cc3ccc(F)cc3)N=C2c2[nH]c(-c3ccoc3)nc21 ?
149 to 150 °C

# input molecule: CCCN1C(=O)N2CC(Cc3ccc(F)cc3)N=C2c2[nH]c(C3CCCC3)nc21 (stereo not shown) (as salt: hydrochloride) ; wanted: its melting point
226 to 228 °C

Any idea what melting point was measured for CCCN1C(=O)N2C[C@H](C(C)C)N=C2c2[nH]c(C(C)C)nc21.Cl ?
156 to 157 °C

Cited source for all entries: patent US6489331B1
